Tested on: NCI/ADR-RES ovarian
Measurement description: NCI tumour cell line growth inhibition, 48 h
Task for the reader: assign each of the following molecules its reported TGI.
Answers are plain numbers, in µM.

Molecule | TGI (µM)
CCOC(=O)C(CC(C)C)NC(=O)C(Cc1ccc(N(CCCl)CCCl)cc1)NC(C)=O (configuration not stated) | 68.5
CCOC(=O)c1cc(C(=O)c2cc(OC)cc(OC)c2)n2nc(C)ccc12 | 14.8

For the next question, use this molecule.
Record O=C1c2c(O)ccc(O)c2C(=O)c2c(NCCNC(=O)C(O)C(O)C(O)C(O)CO)ccc(NCCNC(=O)C(O)C(O)C(O)C(O)CO)c21 (configuration not stated) . Reported TGI: 2.24

====

Test system: UO-31 renal
Measurement description: NCI tumour cell line growth inhibition, 48 h
Give TGI for every item shown.

# example entries with known answers
Compound | TGI
CN(c1ccc(C(=O)O)cc1)c1cc(O/N=[N+](\[O-])N(C)C)c([N+](=O)[O-])cc1[N+](=O)[O-] | > 100 µM
Clc1ccc(N=C2c3ccccc3CN2c2ccc(Cl)cc2)cc1 | > 100 µM
C=CC(O)(CBr)CCC(Br)C(C)(C)Cl (stereo unspecified) | > 10 µM
c1ccc(COC2NCCN2Cc2ccccc2)cc1 (stereo unspecified) | > 100 µM

Give measured TGI for every item shown.
1. Cc1cc(=O)[nH]c(-n2[nH]c3c(c2=O)CCCC3)n1
2. CC(c1ccccc1)N1C(=O)CSC1=S (stereo unspecified)

1: > 100 µM; 2: > 83.5 µM

====

Test system: OVCAR-3 ovarian
Measurement description: NCI tumour cell line growth inhibition, 48 h
Metric name: GI50

These recorded examples may help you get a feel for the data.
Compound | GI50
Cn1cc(-c2csc(-c3c[nH]c4ccc(F)cc34)n2)c2cccnc21 | 620 nM
CN(c1ccc(Cl)c(Cl)c1)c1cnc2cc(N)cc(N)c2n1 | 2360 nM
CSc1ccc(C2=NN(c3ccccc3)C(c3ccc(-c4cc(Cl)c(Cl)cc4Cl)o3)C2)cc1 (centres undefined) | > 100000 nM

Query compound follows.
GI50 reported for this compound CCCCN1C=CCN(CCCC)C1 : 23800 nM

====

Test system: ACHN renal
Measurement description: NCI tumour cell line growth inhibition, 48 h
Metric name: TGI

Solved cases (2 shown):
Compound | TGI
CCCCCCCCCCCCC(=O)CCCCC(=O)O | 73.7 µM
CCOC(=O)NC(=O)c1cn(CCN2CCN(C(=O)CCCCCCCCCCNc3ncnc4c3ncn4C3OC(CO)C(O)C3O)CC2)c(=O)[nH]c1=O (configuration not stated) | > 100 µM

// batch mode: one TGI value per listed entry
1. NC(C/C=C/P(=O)(O)O)C(=O)O (configuration not stated)
2. CS(=O)(=O)OCOS(C)(=O)=O
3. OCN(CO)c1ccc2c(c1)Cc1cc(F)ccc1-2
4. O=C(/C=C/c1c(-c2ccccc2)[nH]c2ccccc12)S(=O)(=O)c1ccccc1
5. CN(C)c1nc2nonc2nc1Nc1ccccc1

["> 100 µM", "> 100 µM", "36.4 µM", "> 100 µM", "> 100 µM"]

Batch request: TGI per item, same order as input.
1. c1ccc(COC2NCCN2Cc2ccccc2)cc1 (configuration not stated)
2. CN(C)C1C(CO)OC(n2cnc3c(N)ncnc32)C1O (configuration not stated)
3. O=C1C(=O)/C(=C/c2ccccc2)CCCCCC/C1=C/c1ccccc1
4. CCc1cccc(C(C)CC)c1NC(=O)CC1C(=O)Nc2ccccc2S1(=O)=O (configuration not stated)
5. Cc1cc(C)nc(NS(=O)(=O)c2ccc(NC(=O)c3cccc4c(Nc5ccc(S(=O)(=O)N=C(N)N)cc5)c5ccccc5nc34)cc2)n1
6. O=C(O)Cc1cc(F)ccc1C(=O)O
7. Cc1ccc(N=Nc2c(C)nn(-c3ccccc3)c2C)c(Br)c1

["> 100 µM", "> 100 µM", "6.5 µM", "> 100 µM", "> 100 µM", "> 100 µM", "> 100 µM"]

Would you mind listing TGI for each of the following compounds?
1. O=C1CC(=O)c2c(N3CCCC3)sc(N3CCCC3)c21
2. CCCCCCCCCCCC(=O)N(CCCCCCCCCCC(=O)O)CC(O)C(O)C(OC1OC(CO)C(O)C(O)C1O)C(O)CO (configuration not stated)
3. C=CCOC1=C(OC(C)=O)C(=O)OC1C1COC(C)(C)O1 (configuration not stated)

> 100 µM
> 100 µM
46.6 µM

Sourced from PubChem BioAssay (NCI)
